These data points were gathered from ChEMBL document CHEMBL4715724.

System: OVCAR-8
TEST: cells
Assay type: functional
MEASUREMENT_SETUP: Homo sapiens, time 48 hrs
Description: Growth inhibition of human OVCAR-8 cells incubated for 48 hrs by sulforhodamine B assay
Collected GI50 values appear next to each entry.
Note: unit µM is implicit; provide only the numeric part.

Some compounds with known GI50 results, for comparison:
CC(C)c1ccc(Nc2ccc3c(OCCCN4CCN(C)CC4)cccc3n2)cc1
17.8
CN1CCN(CCCOc2cccc3nc(Nc4cccc(Cl)c4)ccc23)CC1
1.9
CN1CCN(CCCOc2cccc3nc(Nc4ccc(F)c(F)c4)ccc23)CC1
5.13

Asked: Name the recorded GI50 for Clc1cc(Cl)cc(Nc2ccc3c(OCCCN4CCOCC4)cccc3n2)c1 .
Given back: 3.54

Asked: Quick one: GI50 for CN1CCN(CCCOc2cccc3nc(Nc4cc(Cl)cc(Cl)c4)ccc23)CC1 ?
Given back: 1.94

Asked: Reported GI50, compound Fc1cc(Nc2ccc3c(OCCCN4CCOCC4)cccc3n2)ccc1Cl : ____
Given back: 4.03

Asked: Which GI50 reading was recorded for the compound CN1CCN(CCCOc2cccc3nc(Nc4ccc(Cl)c(F)c4)ccc23)CC1 ?
Given back: 2.02

Asked: I'd like to know its GI50. The compound in question is CN1CCN(CCCOc2cccc3nc(Nc4ccc(Cl)c(C(F)(F)F)c4)ccc23)CC1
Given back: 1.92

Asked: Requested field: GI50. Item: FC(F)(F)c1cc(Nc2ccc3c(OCCCN4CCOCC4)cccc3n2)ccc1Cl
Given back: 4.33

---

Tested on: Panel CNS (Carcinoma cell lines)
TEST: cells
Assay type: functional
MEASUREMENT_SETUP: Homo sapiens, time 48 hrs, read-out: LC50 (the source's name)
Description: Growth inhibition of human Panel CNS (Carcinoma cell lines) incubated for 48 hrs by sulforhodamine B assay
Measured CC50, listed per entry.
Answers without a unit are incomplete; give the number and then its unit.

Example entries and their recorded answers appear below.
CN1CCN(CCCOc2cccc3nc(Nc4cc(Cl)cc(Cl)c4)ccc23)CC1
6.2 µM
CN1CCN(CCCOc2cccc3nc(Nc4cccc(Cl)c4)ccc23)CC1
23.3 µM
CN1CCN(CCCOc2cccc3nc(Nc4ccc(F)c(F)c4)ccc23)CC1
16.1 µM
CN1CCN(CCCOc2cccc3nc(Nc4ccc(Cl)c(C(F)(F)F)c4)ccc23)CC1
6.98 µM

Turning to the following compound.
Asked: Return CC50 measured with Panel CNS (Carcinoma cell lines) given this compound: CN1CCN(CCCOc2cccc3nc(Nc4ccc(Cl)c(F)c4)ccc23)CC1
Given back: 6.46 µM

---

Test system: Panel leukemia (Carcinoma cell lines)
TEST: cells
Assay type: functional
MEASUREMENT_SETUP: Homo sapiens, time 48 hrs
Description: Growth inhibition of human Panel leukemia (Carcinoma cell lines) incubated for 48 hrs by sulforhodamine B assay
Reported GI50 values for the following molecules.
Report field: quantity (unit follows the number).

The following molecules have reported results that may help.
Fc1cc(Nc2ccc3c(OCCCN4CCOCC4)cccc3n2)ccc1Cl
2180 nM
CN1CCN(CCCOc2cccc3nc(Nc4cc(Cl)cc(Cl)c4)ccc23)CC1
1800 nM
CN1CCN(CCCOc2cccc3nc(Nc4ccc(Cl)c(F)c4)ccc23)CC1
1900 nM
CN1CCN(CCCOc2cccc3nc(Nc4ccc(Cl)c(C(F)(F)F)c4)ccc23)CC1
1380 nM
FC(F)(F)c1cc(Nc2ccc3c(OCCCN4CCOCC4)cccc3n2)ccc1Cl
1930 nM
CN1CCN(CCCOc2cccc3nc(Nc4cccc(Cl)c4)ccc23)CC1
1990 nM

Asked: Returns the measured GI50 for the input molecule. Input: Clc1cc(Cl)cc(Nc2ccc3c(OCCCN4CCOCC4)cccc3n2)c1
Given back: 2350 nM

Asked: Recorded GI50 for CN1CCN(CCCOc2cccc3nc(Nc4ccc(F)c(F)c4)ccc23)CC1 , please?
Given back: 2600 nM

Asked: Field request: GI50 | item: COc1cc2ncnc(Nc3ccc(F)c(Cl)c3)c2cc1OCCCN1CCOCC1 [GEFITINIB]
Given back: 3540 nM

Asked: Request the reported GI50 associated with CC(C)c1ccc(Nc2ccc3c(OCCCN4CCN(C)CC4)cccc3n2)cc1
Given back: 4240 nM
